- MEASURED_TARGET: Agam\Orco (Anopheles gambiae, UniProt Q7QCC7)
- Construct: expressed in transfected cells; host or cells: Xenopus laevis oocytes injected with capped cRNA (plasmid pT7TS, gift of L. Zwiebel)
- Sequence (Q7QCC7 whole entry): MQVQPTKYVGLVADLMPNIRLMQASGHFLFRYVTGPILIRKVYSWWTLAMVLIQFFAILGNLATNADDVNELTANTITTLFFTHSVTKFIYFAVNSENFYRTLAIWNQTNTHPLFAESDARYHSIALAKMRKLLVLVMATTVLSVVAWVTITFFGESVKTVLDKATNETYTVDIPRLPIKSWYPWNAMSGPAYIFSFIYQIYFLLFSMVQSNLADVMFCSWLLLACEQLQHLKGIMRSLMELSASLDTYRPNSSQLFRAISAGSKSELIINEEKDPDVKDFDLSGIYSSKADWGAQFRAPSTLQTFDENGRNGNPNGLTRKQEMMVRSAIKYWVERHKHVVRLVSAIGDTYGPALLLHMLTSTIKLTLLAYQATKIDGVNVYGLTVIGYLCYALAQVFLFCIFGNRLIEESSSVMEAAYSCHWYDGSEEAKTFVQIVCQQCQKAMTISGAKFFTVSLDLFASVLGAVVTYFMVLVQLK
- ASSAY_PROCEDURE: cell-based
- Type: cell-based
- RUN_PARAMETERS: 10 µM OLC12; n = 4-7; read-out: IC50 for inhibition of Agam\Orco activation by 10 µM OLC12
MEASURED_ATTRIBUTE: IC50 (µM)
Give the value in µM but do not write µM after it.

input: Indicate the recorded IC50 value for this compound: Cc1cccc(C(C)(C)C)c1O
output: 12

====

- MEASURED_TARGET: Agam\Orco (Anopheles gambiae, UniProt Q7QCC7)
- Construct: expressed in transfected cells; host or cells: Xenopus laevis oocytes injected with capped cRNA (plasmid pT7TS, gift of L. Zwiebel)
- ASSAY_PROCEDURE: cell-based
- Format: cell-based
- RUN_PARAMETERS: Table S1; training actives; Agam\Orco activated by 30 µM OLC12; mean ± SEM (n = 3-8); read-out: IC50
- Description: A 2 hr incubation with collagenase B (Roche) was used to remove follicle cells from oocytes. Capped cRNA for Agam\Orco was synthesized using mMessage mMachine kits (Thermo Fisher Scientific). […]
MEASURED_ATTRIBUTE: pIC50
# log scale: pIC50 equals minus log10 of the concentration in mol/L

input: Quote pIC50 reported for C=C(C)C1CC=C(C)[C@@H](O)C1 (single isomer, unassigned; (-)) [(-)-carveol] please.
output: 2.99

input: Output pIC50 of CCCCCSC [amyl methyl sulfide]
output: 3.04

input: Determine its reported pIC50: COc1nccnc1CC(C)C [2-isobutyl-3-methoxypyrazine]
output: 2.99

input: Could you please provide reported pIC50 for CCCCCCOC(C)=O [hexyl acetate] ? Thanks!
output: 3.08

input: Give pIC50 for Cc1ccc(C(C)C)cc1O [carvacrol]
output: 3.84

input: Give recorded pIC50. CC(C)=CCC[C@@H](C)CC=O [(R)-(+)-citronellal]
output: 3.19

input: Could you please provide reported pIC50 for COc1ccccc1OC [veratrole] ? Thanks!
output: 2.27

input: Look up and state reported pIC50 for O=C1CCCCCCCCCC1 [cycloundecanone]
output: 3.44

input: Please report pIC50 for the following molecule: C=C(C)C1CCC(C)C(O)C1 (single isomer, unassigned; (-)) [(-)-dihydrocarveol]
output: 3.09

input: Complete the entry with pIC50 for CCOC(=O)C=Cc1c(Cl)cccc1Cl [ethyl 2,6-dichlorocinamate]
output: 4.03

input: Specify pIC50 for C#CC(O)CCCCC (stereo not shown) [1-octyn-3-ol] and stop.
output: 3.06

input: Report pIC50, nothing else, for this molecule: CC1(O)CSC(C)(O)CS1 (stereo not shown) [2,5-dimethyl-2,5-dihydroxy-1,4-dithiane]
output: 2.31

input: Provide one value: measured pIC50 of CC(C)CCOC(=O)Cc1ccccc1 [isoamyl phenylacetate]
output: 3.16

input: Complete the entry with pIC50 for COc1ccccc1O [guaiacol]
output: 2.39

input: Using known records, supply pIC50 for O=C(/C=C/c1ccccc1)OCc1ccccc1 [benzyl cinnamate]
output: 3.31

input: Tell me its pIC50 given C=C(C)[C@@H]1CC[C@@H](C)C(=O)C1 [(+)-dihydrocarvone] as the entry.
output: 2.91
